Here the recorded IC50 is given for each entry.
# experimental-target: mTORC1 (Homo sapiens, UniProt P42345+P62942)
# Construct: endogenous in cells; host or cells: PC3 cells (human prostate adenocarcinoma)
# test-details: Inhibition assay for mTORC1: phosphorylation of pS6K at Thr389, AlphaLISA SureFire in PC3 cells
# Type: cell-based
# protocol-conditions: PC3 cells, 24 hours treatment, pS6K Thr389; analogs substituted at C40 and C16 (C16 diastereomer mixtures not isolated); read-out: pIC50 mTORC1 (converted)
# Experimental: The IC50s of the inhibition of mTORC1 and mTORC2 were determined in vitro by determining the phosphorylation of pS6K at position Thr389 (mTORC1 inhibition) and pAkt at Ser473 (mTORC2 inhibition). In vitro studies were performed with AiphaLISA® technology using PC3 cells (Prostate Adenocarcinoma; Human (Homo sapiens)). The cells were seeded in 96 well plates and were treated for 24 hours with the different compounds. […]

Examples from the recorded data:
CO[C@@H]1C[C@H](C[C@@H](C)[C@@H]2CC(=O)[C@H](C)/C=C(\C)[C@@H](O)[C@@H](OC)C(=O)[C@H](C)C[C@H](C)/C=C/C=C/C=C(\C)C(OCCc3ccccc3)C[C@@H]3CC[C@@H](C)[C@@](O)(O3)C(=O)C(=O)N3CCCCC3C(=O)O2)CC[C@H]1OCCCN1CCCCC1 (stereo partly shown) ... < 0.316 nM
CO[C@@H]1C[C@H](C[C@@H](C)[C@@H]2CC(=O)[C@H](C)/C=C(\C)[C@@H](O)[C@@H](OC)C(=O)[C@H](C)C[C@H](C)/C=C/C=C/C=C(\C)C(OCCc3ccccc3)C[C@@H]3CC[C@@H](C)[C@@](O)(O3)C(=O)C(=O)N3CCCCC3C(=O)O2)CC[C@H]1OCCCN1CCN(C)CC1 (stereo partly shown) ... < 0.316 nM
CO[C@@H]1C[C@H](C[C@@H](C)[C@@H]2CC(=O)[C@H](C)/C=C(\C)[C@@H](O)[C@@H](OC)C(=O)[C@H](C)C[C@H](C)/C=C/C=C/C=C(\C)C(OCCO)C[C@@H]3CC[C@@H](C)[C@@](O)(O3)C(=O)C(=O)N3CCCCC3C(=O)O2)CC[C@H]1OC(=O)NCCN1CCOCC1 (stereo partly shown) ... 0.316 to 3.16 nM
COCCCCOC1C[C@@H]2CC[C@@H](C)[C@@](O)(O2)C(=O)C(=O)N2CCCCC2C(=O)O[C@H]([C@H](C)C[C@@H]2CC[C@@H](OCCCO)[C@H](OC)C2)CC(=O)[C@H](C)/C=C(\C)[C@@H](O)[C@@H](OC)C(=O)[C@H](C)C[C@H](C)/C=C/C=C/C=C/1C (stereo partly shown) ... < 0.316 nM
CO[C@@H]1C[C@H](C[C@@H](C)[C@@H]2CC(=O)[C@H](C)/C=C(\C)[C@@H](O)[C@@H](OC)C(=O)[C@H](C)C[C@H](C)/C=C/C=C/C=C(\C)C(OCCCCO)C[C@@H]3CC[C@@H](C)[C@@](O)(O3)C(=O)C(=O)N3CCCC[C@H]3C(=O)O2)CC[C@H]1OCCCO (mixture of isomers) ... < 0.316 nM

Query block: GET /values?readout=IC50&item= CO[C@@H]1C[C@H](C[C@@H](C)[C@@H]2CC(=O)[C@H](C)/C=C(\C)[C@@H](O)[C@@H](OC)C(=O)[C@H](C)C[C@H](C)/C=C/C=C/C=C(\C)C(OCCCCO)C[C@@H]3CC[C@@H](C)[C@@](O)(O3)C(=O)C(=O)N3CCCCC3C(=O)O2)CC[C@H]1OCCO (stereo partly shown)
Result block: < 0.316 nM

Query block: GET /values?readout=IC50&item= COCCOC1C[C@@H]2CC[C@@H](C)[C@@](O)(O2)C(=O)C(=O)N2CCCCC2C(=O)O[C@H]([C@H](C)C[C@@H]2CC[C@@H](OCCCCN3CCOCC3)[C@H](OC)C2)CC(=O)[C@H](C)/C=C(\C)[C@@H](O)[C@@H](OC)C(=O)[C@H](C)C[C@H](C)/C=C/C=C/C=C/1C (stereo partly shown)
Result block: < 0.316 nM

Query block: GET /values?readout=IC50&item= CO[C@@H]1C[C@H](C[C@@H](C)[C@@H]2CC(=O)[C@H](C)/C=C(\C)[C@@H](O)[C@@H](OC)C(=O)[C@H](C)C[C@H](C)/C=C/C=C/C=C(\C)C(OC[C@H](O)c3ccccc3)C[C@@H]3CC[C@@H](C)[C@@](O)(O3)C(=O)C(=O)N3CCCCC3C(=O)O2)CC[C@H]1OCCO (stereo partly shown)
Result block: < 0.316 nM

Query block: GET /values?readout=IC50&item= COCCOC1C[C@@H]2CC[C@@H](C)[C@@](O)(O2)C(=O)C(=O)N2CCCCC2C(=O)O[C@H]([C@H](C)C[C@@H]2CC[C@@H](OCCCN3CCN(C)CC3)[C@H](OC)C2)CC(=O)[C@H](C)/C=C(\C)[C@@H](O)[C@@H](OC)C(=O)[C@H](C)C[C@H](C)/C=C/C=C/C=C/1C (stereo partly shown)
Result block: < 0.316 nM

Query block: GET /values?readout=IC50&item= COCCCOC1C[C@@H]2CC[C@@H](C)[C@@](O)(O2)C(=O)C(=O)N2CCCCC2C(=O)O[C@H]([C@H](C)C[C@@H]2CC[C@@H](OCCO)[C@H](OC)C2)CC(=O)[C@H](C)/C=C(\C)[C@@H](O)[C@@H](OC)C(=O)[C@H](C)C[C@H](C)/C=C/C=C/C=C/1C (stereo partly shown)
Result block: < 0.316 nM

Query block: GET /values?readout=IC50&item= CO[C@@H]1C[C@H](C[C@@H](C)[C@@H]2CC(=O)[C@H](C)/C=C(\C)[C@@H](O)[C@@H](OC)C(=O)[C@H](C)C[C@H](C)/C=C/C=C/C=C(\C)C(OCCO)C[C@@H]3CC[C@@H](C)[C@@](O)(O3)C(=O)C(=O)N3CCCCC3C(=O)O2)CC[C@H]1OCCO (stereo partly shown)
Result block: < 0.316 nM

Query block: GET /values?readout=IC50&item= CO[C@@H]1C[C@H](C[C@@H](C)[C@@H]2CC(=O)[C@H](C)/C=C(\C)[C@@H](O)[C@@H](OC)C(=O)[C@H](C)C[C@H](C)/C=C/C=C/C=C(\C)C(OCCO)C[C@@H]3CC[C@@H](C)[C@@](O)(O3)C(=O)C(=O)N3CCCCC3C(=O)O2)CC[C@H]1OC(=O)NCCn1cnnn1 (stereo partly shown)
Result block: 0.316 to 3.16 nM

Query block: GET /values?readout=IC50&item= COCCOC1C[C@@H]2CC[C@@H](C)[C@@](O)(O2)C(=O)C(=O)N2CCCCC2C(=O)O[C@H]([C@H](C)C[C@@H]2CC[C@@H](OC[C@@H](O)CO)[C@H](OC)C2)CC(=O)[C@H](C)/C=C(\C)[C@@H](O)[C@@H](OC)C(=O)[C@H](C)C[C@H](C)/C=C/C=C/C=C/1C (stereo partly shown)
Result block: < 0.316 nM
